pIC50: −log10 of the molar value.
# pIC50 measurements, system: human ACC2 (Homo sapiens (Human), UniProt O00763)
# Sequence (O00763 129-2458): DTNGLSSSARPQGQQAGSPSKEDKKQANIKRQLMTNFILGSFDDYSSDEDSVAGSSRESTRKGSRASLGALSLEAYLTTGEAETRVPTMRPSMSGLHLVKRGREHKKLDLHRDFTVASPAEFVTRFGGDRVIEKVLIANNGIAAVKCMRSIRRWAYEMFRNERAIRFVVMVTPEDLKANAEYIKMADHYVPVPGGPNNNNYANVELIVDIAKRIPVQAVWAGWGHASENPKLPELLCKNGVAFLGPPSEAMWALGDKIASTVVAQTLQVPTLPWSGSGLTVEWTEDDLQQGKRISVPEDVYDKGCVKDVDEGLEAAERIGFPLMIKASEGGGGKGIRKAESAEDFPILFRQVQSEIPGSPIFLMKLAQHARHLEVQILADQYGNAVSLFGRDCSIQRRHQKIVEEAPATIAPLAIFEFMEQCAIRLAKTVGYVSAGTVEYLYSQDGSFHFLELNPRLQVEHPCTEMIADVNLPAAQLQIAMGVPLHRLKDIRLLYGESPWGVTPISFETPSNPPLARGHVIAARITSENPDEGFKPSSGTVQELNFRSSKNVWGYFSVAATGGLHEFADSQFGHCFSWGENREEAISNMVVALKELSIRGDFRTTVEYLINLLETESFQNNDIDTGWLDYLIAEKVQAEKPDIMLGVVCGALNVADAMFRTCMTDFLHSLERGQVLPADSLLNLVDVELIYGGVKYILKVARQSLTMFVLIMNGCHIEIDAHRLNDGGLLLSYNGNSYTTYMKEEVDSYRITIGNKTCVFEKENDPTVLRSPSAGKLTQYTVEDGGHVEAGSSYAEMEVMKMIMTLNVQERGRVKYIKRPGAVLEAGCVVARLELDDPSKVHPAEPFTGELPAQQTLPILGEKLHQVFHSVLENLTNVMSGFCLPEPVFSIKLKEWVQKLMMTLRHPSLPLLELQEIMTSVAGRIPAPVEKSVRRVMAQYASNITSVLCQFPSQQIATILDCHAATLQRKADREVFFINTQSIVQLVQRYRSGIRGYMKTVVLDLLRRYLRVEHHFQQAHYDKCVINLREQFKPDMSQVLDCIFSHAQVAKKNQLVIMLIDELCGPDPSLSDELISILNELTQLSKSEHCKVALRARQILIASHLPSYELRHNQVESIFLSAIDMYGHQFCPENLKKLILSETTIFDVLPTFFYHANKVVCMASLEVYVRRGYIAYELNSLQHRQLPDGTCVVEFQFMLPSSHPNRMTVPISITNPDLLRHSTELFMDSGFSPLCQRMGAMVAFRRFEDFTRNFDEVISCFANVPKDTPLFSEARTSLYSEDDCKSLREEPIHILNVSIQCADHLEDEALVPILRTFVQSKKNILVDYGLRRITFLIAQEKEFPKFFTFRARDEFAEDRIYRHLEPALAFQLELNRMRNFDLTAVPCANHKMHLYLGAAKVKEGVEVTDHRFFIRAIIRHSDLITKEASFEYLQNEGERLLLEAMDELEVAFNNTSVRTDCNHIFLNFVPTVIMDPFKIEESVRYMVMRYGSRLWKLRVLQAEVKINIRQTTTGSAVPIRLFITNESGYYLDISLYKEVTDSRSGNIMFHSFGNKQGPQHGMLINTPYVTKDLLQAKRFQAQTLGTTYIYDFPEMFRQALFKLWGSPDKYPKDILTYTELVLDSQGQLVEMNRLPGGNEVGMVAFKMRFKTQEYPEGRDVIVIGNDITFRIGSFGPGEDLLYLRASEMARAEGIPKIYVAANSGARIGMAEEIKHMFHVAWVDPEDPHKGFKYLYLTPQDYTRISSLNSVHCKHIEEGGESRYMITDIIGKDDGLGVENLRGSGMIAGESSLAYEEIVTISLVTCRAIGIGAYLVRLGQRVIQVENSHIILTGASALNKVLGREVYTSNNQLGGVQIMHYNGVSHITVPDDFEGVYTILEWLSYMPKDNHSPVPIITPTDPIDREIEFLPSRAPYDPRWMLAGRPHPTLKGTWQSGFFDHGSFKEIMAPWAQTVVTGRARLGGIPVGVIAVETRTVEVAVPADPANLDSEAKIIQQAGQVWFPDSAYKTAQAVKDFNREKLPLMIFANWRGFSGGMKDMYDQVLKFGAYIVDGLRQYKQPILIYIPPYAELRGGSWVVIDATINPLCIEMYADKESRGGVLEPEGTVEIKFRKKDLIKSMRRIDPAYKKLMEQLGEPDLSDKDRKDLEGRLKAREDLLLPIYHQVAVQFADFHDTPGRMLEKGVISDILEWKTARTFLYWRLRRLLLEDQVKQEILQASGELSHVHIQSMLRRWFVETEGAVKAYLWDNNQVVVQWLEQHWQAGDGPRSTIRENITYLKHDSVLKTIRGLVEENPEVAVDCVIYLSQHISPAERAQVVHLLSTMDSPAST
Value Kind: pIC50

Examples from the recorded data:
>>> obs_value("COc1ccc(N2CCC(Oc3ccc([C@H](C)NC(C)=O)cc3)C2)cc1C(F)(F)F (stereo partly drawn) [Example 1.32]")
6.27
>>> obs_value("C[C@H](NC(=O)C1CCC(=O)N1)c1ccc(O[C@@H]2CCN(c3ccc(OCC4CC4)cc3)C2)cc1 (stereo partly drawn) [Example 2.2]")
6.17
>>> obs_value("CC(=O)N[C@@H](C)c1ccc(OC2CCN(c3cccc(C)c3)C2)cc1 (stereo partly drawn) [Example 1.55]")
6.67

(P) C[C@H](NC(=O)c1ccon1)c1ccc(O[C@@H]2CCN(c3ccc(OCC4CC4)cc3)C2)cc1 [Example 2.34]
(Q) C[C@H](O)C(=O)N[C@@H](C)c1ccc(O[C@@H]2CCN(c3ccc(OCC4CC4)cc3)C2)cc1 [Example 2.30]
Incoming: Determine, for P and Q , which has the greater value of pIC50. Choose, then provide that item's label.
Outgoing: P
(P: 7.15, Q: 6.10)

====

# System Under Test: human ACC2 (Homo sapiens (Human), UniProt O00763)
pIC50: −log10 of the molar value.
Value Kind: pIC50

>>> obs_value("Cc1cc(C(=O)N[C@@H](C)c2ccc(O[C@@H]3CCN(c4ccc(OCC5CC5)cc4)C3)cc2)[nH]n1")
6.48
>>> obs_value("CCOc1cccc(N2CC[C@@H](Oc3ccc([C@H](C)NC(C)=O)cc3)C2)c1")
6.69

(1) COCCCOc1ccc(N2CCC(Oc3ccc([C@H](C)NC(C)=O)cc3)C2)c(F)c1 (stereo partly shown)
(2) CC(=O)N[C@@H](C)c1ccc(OC2CCN(c3ccc(OCC4CC4)cc3F)C2)cc1 (stereo partly shown)
Incoming: Determine, for 1 and 2 , which has the greater value of pIC50. Choose, then provide that item's label.
Outgoing: 2
(2: 6.64, 1: 6.32)

====

# pIC50 measurements, system: human ACC2 (Homo sapiens (Human), UniProt O00763)
pIC50: −log10 of the molar value.
Value Kind: pIC50

Examples from the recorded data:
>>> obs_value("CC(=O)N[C@@H](C)c1ccc(O[C@H]2CCN(c3ccc(OC4CC4)cc3)C2)cc1")
6.11
>>> obs_value("C[C@H](NC(=O)CO)c1ccc(O[C@@H]2CCN(c3ccc(OCC4CC4)cc3)C2)cc1")
6.40
>>> obs_value("C[C@H](NC(=O)C(F)F)c1ccc(O[C@@H]2CCN(c3ccc(OCC4CC4)cc3)C2)cc1")
7.42
>>> obs_value("C[C@H](NC(=O)C1CC[C@@H](N)C1)c1ccc(O[C@@H]2CCN(c3ccc(OCC4CC4)cc3)C2)cc1 (some centres unmarked)")
5.76
>>> obs_value("C[C@H](NC(=O)c1ccnnc1)c1ccc(O[C@@H]2CCN(c3ccc(OCC4CC4)cc3)C2)cc1")
6.70

(a) CC(=O)N[C@@H](C)c1ccc(OC2CCN(c3cccc(C(F)F)c3)C2)cc1 (some centres unmarked)
(b) CC(C)Oc1ccc(N2CCC(Oc3ccc([C@H](C)NC(=O)N(C)C)cc3)C2)cc1 (some centres unmarked)
Incoming: Quick one: lower pIC50, a or b ? Choose, then provide that item's label.
Outgoing: b
(b: 6.06, a: 6.78)

(A) CC(=O)N[C@@H](C)c1ccc(OC2CCN(c3ccc(OCC(F)F)cc3)C2)cc1 (some centres unmarked)
(B) CC(=O)N[C@@H](C)c1ccc(OC2CCN(c3ccc(OC4CCOC4)cc3F)C2)cc1 (some centres unmarked)
Incoming: Determine, for A and B , which has the greater value of pIC50. Choose, then provide that item's label.
Outgoing: A
